system: UACC-62 melanoma; assay: NCI-60 one-dose screen, 48 h (100 = growth as untreated, 0 = no growth, -100 = all killed); conditions: 10 µM unless noted
About 83,000 compounds went through this panel and 20% of them were active in at least one assay; those are over-represented in the sample as a whole.
parameter.measured: growth (%)
Use % as the unit, but write only the number.

**Query** Given the entry Clc1nn2c(Cn3cnc4c(NCc5ccccc5)ncnc43)nnc2c2ccccc12 , report its measured growth.
**Result** 22.4

**Query** Quick one: NNC(=S)N/N=C/c1ccccn1
**Result** 20.7

**Query** Quick one: CC(CN)[C@@H]1CC[C@]2(CO)CC[C@]3(C)[C@H](CC[C@@H]4[C@@]5(C)CCC(N)C(C)(C)[C@@H]5CC[C@]43C)[C@@H]12 (stereo not given in full)
**Result** 104

**Query** Quick one: Cc1c2cc[nH]c(=O)c2c(C)c2c1[nH]c1ccc(OC(=O)c3ccccc3)cc12
**Result** 28.5

**Query** Quick one: O=C1/C(=C/c2ccc(C(F)(F)F)cc2)COc2ccc(O)cc21
**Result** 80.2

Value source: PubChem BioAssay (NCI)
